Data provenance: the supplement of paper PMC11579375

System: 3E (embryonal-type hepatoblastoma organoid)
assayName: area under the viability dose-response curve (AUC) (AUC (arbitrary units, max 500 = no viability loss)); higher = less sensitive (higher viability)
assayContext: exposure time: 120 h; concentration range: 0.1 nM - 10 µM, 6 doses
measurementType: area under the viability dose-response curve
Give your answer as a number; write no unit.

Fill in area under the viability dose-response curve for record CN1CCN(c2ccc3nc(-c4c(N)c5c(F)cccc5[nH]c4=O)[nH]c3c2)CC1
396

Supply measured area under the viability dose-response curve of C=CC(=O)N1C[C@H](Nc2ncnc3[nH]ccc23)CC[C@@H]1C in your reply.
463

Look up area under the viability dose-response curve of COc1cc2nccc(Oc3ccc(NC(=O)C4(C(=O)Nc5ccc(F)cc5)CC4)cc3)c2cc1OC [Cabozantinib] and report it.
457

====

Tested on: 13F2 (fetal-II hepatoblastoma organoid with high liver markers)
assayName: area under the viability dose-response curve (AUC) (AUC (arbitrary units, max 500 = no viability loss)); higher = less sensitive (higher viability)
assayContext: exposure time: 120 h; concentration range: 0.1 nM - 10 µM, 6 doses
measurementType: area under the viability dose-response curve
When you answer, write just the number.

Provide area under the viability dose-response curve value for the following compound: CC(C)C[C@H](NC(=O)[C@H](Cc1ccccc1)NC(=O)c1cnccn1)B(O)O [Bortezomib]
182

Write down area under the viability dose-response curve measured for item CN/N=N/c1[nH]cnc1C(N)=O [MTIC]
443

Report area under the viability dose-response curve, nothing else, for this compound: CNCc1ccc(-c2[nH]c3cc(F)cc4c3c2CCNC4=O)cc1 [Rucaparib]
458

Answer with reported area under the viability dose-response curve of Cc1cn(-c2cc(NC(=O)c3ccc(C)c(Nc4nccc(-c5cccnc5)n4)c3)cc(C(F)(F)F)c2)cn1 [Nilotinib]
471

Fill in reported area under the viability dose-response curve for this entry: COc1ccc([C@@H](O)c2cc(-c3ncnc4cc(N5CCOCC5)ccc34)c(F)cc2Cl)nn1 [Nedisertib]
394

Give recorded area under the viability dose-response curve. CO[C@H]1/C=C/C[C@H](C)[C@@H](C)S(=O)(=O)NC(=O)c2ccc3c(c2)N(C[C@@H]2CC[C@H]21)C[C@@]1(CCCc2cc(Cl)ccc21)CO3 [AMG-176]
344

Return area under the viability dose-response curve (reported value) for this compound: CN(C)C/C=C/C(=O)Nc1ccc(C(=O)N2CCC[C@@H](Nc3ncc(Cl)c(-c4c[nH]c5ccccc45)n3)C2)cc1 [THZ531]
376

====

Tested on: 135F2 (fetal-II hepatoblastoma organoid with high liver markers)
assayName: area under the viability dose-response curve (AUC) (AUC (arbitrary units, max 500 = no viability loss)); higher = less sensitive (higher viability)
assayContext: exposure time: 120 h; concentration range: 0.1 nM - 10 µM, 6 doses
Exercise: state measured area under the viability dose-response curve for each of the molecules provided.
Just the number, please.

Retrieve area under the viability dose-response curve measured for CNC(=O)c1ccc(Nc2ncc(C(F)(F)F)c(NCc3nccnc3N(C)S(C)(=O)=O)n2)cc1 [Defactinib] and print it.
454

Could you please provide reported area under the viability dose-response curve for S=c1nc[nH]c2nc[nH]c12 [6-Mercaptopurine] ? Thanks!
402

Give reported area under the viability dose-response curve value for CC[C@]1(O)C[C@H]2CN(CCc3c([nH]c4ccccc34)[C@@](C(=O)OC)(c3cc4c(cc3OC)N(C=O)[C@H]3[C@@](O)(C(=O)OC)[C@H](OC(C)=O)[C@]5(CC)C=CCN6CC[C@]43[C@@H]65)C2)C1 [Vincristine]
209

Provide one value: measured area under the viability dose-response curve of O=C(/C=C\n1cnc(-c2cc(C(F)(F)F)cc(C(F)(F)F)c2)n1)NNc1cnccn1 [Selinexor]
378

Look up area under the viability dose-response curve of CC1(C)CCC(CN2CCN(c3ccc(C(=O)NS(=O)(=O)c4ccc(NCC5CCOCC5)c([N+](=O)[O-])c4)c(Oc4cnc5[nH]ccc5c4)c3)CC2)=C(c2ccc(Cl)cc2)C1 [Venetoclax] and report it.
470

Provide only the value of recorded area under the viability dose-response curve for CC(C)c1cc(-c2n[nH]c(=O)n2-c2ccc3c(ccn3C)c2)c(O)cc1O [Ganetespib]
340

Query area under the viability dose-response curve for NC(=O)c1cccc2cn(-c3ccc([C@@H]4CCCNC4)cc3)nc12 [Niraparib]
458

====

For each of the molecules below, state its area under the viability dose-response curve.
Tested on: 135F2
assayName: area under the viability dose-response curve (AUC) (AUC (arbitrary units, max 500 = no viability loss)); higher = less sensitive (higher viability)
assayContext: exposure time: 120 h; concentration range: 0.1 nM - 10 µM, 6 doses
Response field accepts a number only; no unit should be typed.

Output area under the viability dose-response curve of CCc1cc2c(cc1N1CCC(N3CCOCC3)CC1)C(C)(C)c1[nH]c3cc(C#N)ccc3c1C2=O [Alectinib]
499

Complete the entry with area under the viability dose-response curve for CC(=O)[C@]1(O)Cc2c(O)c3c(c(O)c2[C@@H](O[C@H]2C[C@H](N)[C@H](O)[C@H](C)O2)C1)C(=O)c1ccccc1C3=O [Idarubicin]
143

Name the recorded area under the viability dose-response curve of the item COc1cc2nc(C)nc(N[C@H](C)c3cc(N)cc(C(F)(F)F)c3)c2cc1O[C@H]1CCOC1 [BI-3406] in your answer.
472

Give a short answer stating reported area under the viability dose-response curve for N#CCNC(=O)c1ccc(-c2ccnc(Nc3ccc(N4CCOCC4)cc3)n2)cc1 [Momelotinib] .
462

Supply reported area under the viability dose-response curve belonging to this molecule: CC[C@@]1(O)C(=O)OCc2c1cc1n(c2=O)Cc2cc3c(CN(C)C)c(O)ccc3nc2-1 [Topotecan]
291

Name the recorded area under the viability dose-response curve of the molecule listed here: N#Cc1c(Oc2ccc(F)c(NC(=O)Cc3cccc(C(F)(F)F)c3)c2)ccc2nc(NC(=O)C3CC3)sc12 [TAK632]
393

Write down area under the viability dose-response curve measured for item CC(C)(CN1C(=O)C(Cl)=C(Cl)C1=O)CN1C(=O)C(Cl)=C(Cl)C1=O
497

In one line, give reported area under the viability dose-response curve of the entry COCCNCc1ccc(-c2cc3nccc(Oc4ccc(NC(=O)C5(C(=O)Nc6ccc(F)cc6)CC5)cc4F)c3s2)nc1 [Sitravatinib] .
432

Look up area under the viability dose-response curve of CO[C@@H](C)Cn1c(=O)n(C)c2cnc3ccc(-c4cncc(C(C)(C)O)c4)cc3c21 [Samotolisib] and report it.
361

Assign area under the viability dose-response curve to the following record: COc1ccc(-c2ccc3c(N4CCOC[C@@H]4C)nc(N4CCOC[C@@H]4C)nc3n2)cc1CO [AZD8055]
342

Return reported area under the viability dose-response curve. Input molecule: COc1c(OCCCN2CCOCC2)ccc2c1N=C(NC(=O)c1cnc(N)nc1)N1CCN=C21 [Copanlisib]
315

Please report area under the viability dose-response curve for the following molecule: COCC1(CO)C(=O)C2CCN1CC2 (stereo unspecified) [APR-246]
495

Report area under the viability dose-response curve for COc1ccc([C@@H](O)c2cc(-c3ncnc4cc(N5CCOCC5)ccc34)c(F)cc2Cl)nn1 [Nedisertib]
463

Retrieve area under the viability dose-response curve measured for CCN(CC)CCNC(=O)c1c(C)[nH]c(/C=C2\C(=O)Nc3ccc(F)cc32)c1C [Sunitinib] and print it.
437

Specify measured area under the viability dose-response curve for Nc1ncccc1-c1nc2ccc(-c3ccccc3)nc2n1-c1ccc(C2(N)CCC2)cc1 [Miransertib] .
429

====

Provide the reported area under the viability dose-response curve of each item.
System: 13F2
assayName: area under the viability dose-response curve (AUC) (AUC (arbitrary units, max 500 = no viability loss)); higher = less sensitive (higher viability)
assayContext: exposure time: 120 h; concentration range: 0.1 nM - 10 µM, 6 doses
Give your answer as a number; write no unit.

Check the records and state area under the viability dose-response curve for CCc1cc2c(cc1N1CCC(N3CCOCC3)CC1)C(C)(C)c1[nH]c3cc(C#N)ccc3c1C2=O
473

Please give measured area under the viability dose-response curve of the following entry: Cn1nccc1Nc1nccc(-c2ccn([C@H](CO)c3ccc(Cl)c(F)c3)c(=O)c2)n1
354

Answer with the recorded area under the viability dose-response curve of C[C@@H]1COCCN1c1cc(=O)n2c(n1)N(Cc1cncc(Cl)c1)[C@H](C(F)(F)F)CC2 only.
467

====

System: 13F2
assayName: area under the viability dose-response curve (AUC) (AUC (arbitrary units, max 500 = no viability loss)); higher = less sensitive (higher viability)
assayContext: exposure time: 120 h; concentration range: 0.1 nM - 10 µM, 6 doses
measurementType: area under the viability dose-response curve
The answer should be a number; do not append a unit.

Check the records and state area under the viability dose-response curve for Cc1cc(-c2ncc(CC(=O)Nc3ccc(-c4cnccn4)cn3)cc2C)ccn1
477

Report measured area under the viability dose-response curve; entry is O=C(NOC[C@H](O)CO)c1ccc(F)c(F)c1Nc1ccc(I)cc1F
325

Supply recorded area under the viability dose-response curve for CC1(N)CCN(c2cnc(-c3cccc(Cl)c3Cl)c(N)n2)CC1 here.
479

Provide measured area under the viability dose-response curve value, entry: CN1CCN(CCOc2cc(OC3CCOCC3)c3c(Nc4c(Cl)ccc5c4OCO5)ncnc3c2)CC1
415

Supply area under the viability dose-response curve value. Item: C[C@H](NC(=O)Cc1cc(F)cc(F)c1)C(=O)N[C@@H]1C(=O)N(C)c2ccccc2-c2ccccc21
388

Identify measured area under the viability dose-response curve corresponding to C[C@H](NC(=O)c1c(N)nn2cccnc12)c1cc2cccc(C#Cc3cnn(C)c3)c2c(=O)n1-c1ccccc1
479

Entry O=C(c1ccc(F)c(F)c1Nc1ccc(I)cc1F)N1CC(O)([C@@H]2CCCCN2)C1 needs its area under the viability dose-response curve filled in; supply it.
266

Provide measured area under the viability dose-response curve value, entry: CNc1nc(-c2nc3ccc(N4CCN(C)CC4)cc3n2Cc2ccccc2)cn2c(C)nnc12
260
